The entries below are paired with their reported Ratio.
test: Ratio of binding affinity of mu-opioid receptor and dopamine transporter
observable: Ratio

>  <compound structure string>
CCOC(=O)C1(c2ccc3ccccc3c2)CCN(C)CC1

>  <recorded result>
1.78

$$$$
>  <compound structure string>
CCOC(=O)C1(c2ccc(Cl)cc2)CCN(C)CC1

>  <recorded result>
1.08

$$$$
>  <compound structure string>
CN1CCC(C#N)(c2ccc(Cl)cc2)CC1

>  <recorded result>
1.67

$$$$
>  <compound structure string>
Cc1ccc(C2(C#N)CCN(C)CC2)cc1

>  <recorded result>
0.97

$$$$
>  <compound structure string>
CCOC(=O)C1(c2ccc(Cl)c(Cl)c2)CCN(C)CC1

>  <recorded result>
16.3

$$$$
>  <compound structure string>
CN1CCC(C#N)(c2ccc3ccccc3c2)CC1

>  <recorded result>
6.53

$$$$
>  <compound structure string>
CCOC(=O)C1(c2ccc(C)cc2)CCN(C)CC1

>  <recorded result>
0.22

$$$$
